# test_name: Microsomal metabolic stability assay
# Format: in vitro ADME
# cond: pH 7.4; human liver microsomes, 0.5 mg/mL protein, 1 μM compound; read-out: Human LM T½
endpoint_label: half-life at 1 μM

Record summary for [2H]C([2H])([2H])NC(=O)c1cnc2cc1Nc1cc(cc(-c3ncc(OC)cn3)c1OC)COCc1nc(ccc1F)N2 [Example 95] : reported half-life at 1 μM = > 2 h

Record summary for [2H]C([2H])([2H])NC(=O)c1cnc2cc1Nc1cc(cc(-c3ncc(F)cn3)c1OC)COCc1nc(ccc1F)N2 [Example 86] : reported half-life at 1 μM = > 2 h

Record summary for [2H]C([2H])([2H])NC(=O)c1cnc(NC(=O)C2CC2)cc1Nc1csc2cnn(C(C)C(F)(F)F)c(=O)c12 (stereo not drawn) [Example 185] : reported half-life at 1 μM = > 2 h

* * *

# measurement_target: Ba/F3-FL-TYK2-P760L cells (Homo sapiens, UniProt P29597, P760L, cells depend on it)
# Construct: BaF3-FL-T2P760L (nM)
# Sequence (P29597 whole entry P760L): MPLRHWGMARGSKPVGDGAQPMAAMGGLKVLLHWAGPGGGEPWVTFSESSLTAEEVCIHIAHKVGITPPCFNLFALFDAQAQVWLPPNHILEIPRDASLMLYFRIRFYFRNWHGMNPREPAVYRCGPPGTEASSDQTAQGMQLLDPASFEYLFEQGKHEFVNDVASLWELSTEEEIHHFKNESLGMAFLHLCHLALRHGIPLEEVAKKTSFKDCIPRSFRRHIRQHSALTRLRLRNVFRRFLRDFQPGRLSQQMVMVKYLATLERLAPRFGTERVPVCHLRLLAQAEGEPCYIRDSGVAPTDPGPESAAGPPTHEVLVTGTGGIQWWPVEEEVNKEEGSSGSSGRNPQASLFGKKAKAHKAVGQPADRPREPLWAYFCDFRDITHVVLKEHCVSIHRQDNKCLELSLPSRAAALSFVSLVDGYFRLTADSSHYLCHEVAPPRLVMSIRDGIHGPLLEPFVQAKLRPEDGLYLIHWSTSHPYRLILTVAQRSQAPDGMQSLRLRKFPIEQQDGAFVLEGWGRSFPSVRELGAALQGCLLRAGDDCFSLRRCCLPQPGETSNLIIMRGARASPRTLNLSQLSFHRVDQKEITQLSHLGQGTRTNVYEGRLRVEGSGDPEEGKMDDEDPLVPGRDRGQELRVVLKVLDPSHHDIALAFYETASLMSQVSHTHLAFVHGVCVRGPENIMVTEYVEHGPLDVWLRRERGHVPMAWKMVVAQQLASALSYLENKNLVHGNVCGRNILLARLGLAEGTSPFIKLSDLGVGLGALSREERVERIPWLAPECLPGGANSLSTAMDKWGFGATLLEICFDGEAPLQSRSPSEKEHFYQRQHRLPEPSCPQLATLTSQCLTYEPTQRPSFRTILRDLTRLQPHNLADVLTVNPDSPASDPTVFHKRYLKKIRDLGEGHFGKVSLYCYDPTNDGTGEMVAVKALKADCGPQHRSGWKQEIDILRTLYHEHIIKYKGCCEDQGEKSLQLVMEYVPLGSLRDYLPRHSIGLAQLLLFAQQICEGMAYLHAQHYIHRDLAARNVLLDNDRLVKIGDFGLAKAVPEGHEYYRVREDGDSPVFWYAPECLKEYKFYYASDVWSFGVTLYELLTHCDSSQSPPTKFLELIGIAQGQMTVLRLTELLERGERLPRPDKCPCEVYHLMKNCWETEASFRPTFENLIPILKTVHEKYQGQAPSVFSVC
# test_name: Anti-proliferative assay, Ba/F3-FL-TYK2-P760L cells (Cell-Titer Glo)
# Assay type: cell-based
# cond: 72 h, read-out: BaF3-FL-T2P760L IC50
endpoint_label: GI50

Record summary for CCn1ccc2scc(Nc3cc(NC(=O)C4CC4)ncc3C(=O)NC)c2c1=O : reported GI50 = 114 nM

Record summary for [2H]C([2H])([2H])NC(=O)c1cnc(NC(=O)C2(C(F)(F)F)CC2)cc1Nc1ccc2cnn(CC)c2c1OC : reported GI50 = > 5000 nM

Record summary for [2H]C([2H])([2H])NC(=O)c1cnc(NC(=O)C2CC2)cc1Nc1ccn2cnc(CC)c2c1OC : reported GI50 = > 5000 nM

* * *

# measurement_target: Ba/F3-FL-TYK2-P760L cells (Homo sapiens, UniProt P29597, P760L, cells depend on it)
# Construct: BaF3-FL-T2P760L (nM)
# test_name: Anti-proliferative assay, Ba/F3-FL-TYK2-P760L cells (Cell-Titer Glo)
# Type: cell-based
# cond: 72 h, read-out: BaF3-FL-T2P760L IC50
endpoint_label: GI50 (nM)
Record the value in nM, omitting the unit from your answer.

Record summary for CCn1ncc2ccc(Nc3cc(NC(=O)C4CC4)ncc3C(=O)OC)c(OC(F)(F)F)c21 : reported GI50 = 242

Record summary for [2H]C([2H])([2H])NC(=O)c1cnc(Nc2ccc(F)cn2)cc1Nc1cn(CCOC)c2ccn(CC)c(=O)c12 : reported GI50 = 124

Record summary for [2H]C([2H])([2H])NC(=O)c1cnc(NC(=O)C2CC2)cc1Nc1ncc2cnn(CC)c2c1OC : reported GI50 = 41.6

Record summary for [2H]C([2H])([2H])NC(=O)c1cnc(Nc2ccc(N3CCOCC3)cn2)cc1Nc1ccc2cnn(CC)c2c1OC : reported GI50 = 28.4

Record summary for CNC(=O)c1cnc(NC(=O)C2CC2)cc1Nc1cn(CCOC)c2ccn([C@H](C)C(F)(F)F)c(=O)c12 (single isomer, unassigned) [Example 201A] : reported GI50 = 241

Record summary for [2H]C([2H])([2H])NC(=O)c1cnc(NC(=O)[C@@H]2C[C@@H]2F)cc1Nc1ccc2cnn(CC)c2c1OC (relative stereo) : reported GI50 = 69.5

Record summary for [2H]C([2H])([2H])NC(=O)c1cnc(NC(=O)C2CC2)cc1Nc1ccc2cn[nH]c2c1OC : reported GI50 = 149

Record summary for COC(=O)c1cnc(NC(=O)C2CC2)cc1Nc1csc2c(C#N)cn(C)c(=O)c12 : reported GI50 = 309

Record summary for [2H]C([2H])([2H])NC(=O)c1cnc(Nc2ccn(C3CC3)n2)nc1Nc1cccc(-c2ncn(C)n2)c1OC : reported GI50 = 832

Record summary for [2H]C([2H])([2H])NC(=O)c1cnc(NC(=O)C2CC2)cc1Nc1ccc2ccn(CC)c2c1OC : reported GI50 = 18.1

Record summary for [2H]C([2H])([2H])NC(=O)c1cnc(NC(=O)C2CC2)cc1Nc1cn(CC(F)(F)F)c2ccn(CC)c(=O)c12 : reported GI50 = 52.6

Record summary for [2H]C([2H])([2H])NC(=O)c1cnc(NC(=O)C2CC2)cc1Nc1ccc2ncn(CC)c2c1OC : reported GI50 = 100

Record summary for [2H]C([2H])([2H])NC(=O)c1cnc(NC(=O)C2CC2)cc1Nc1cn(C2CC2)c2ncn(CC)c(=O)c12 : reported GI50 = 174

Record summary for [2H]C([2H])([2H])NC(=O)c1cnc(NC(=O)C2CC2)cc1Nc1cn(C)c2ccn(-c3cc(C)n(C)n3)c(=O)c12 : reported GI50 = 1510

Record summary for [2H]C([2H])([2H])NC(=O)c1cnc(Nc2ccc(F)cn2)cc1Nc1ncc2cnn(C([2H])([2H])[2H])c2c1OC : reported GI50 = 60.2

Record summary for [2H]C([2H])([2H])NC(=O)c1cnc(NC(=O)C2CC2)cc1Nc1csc2c(Cl)cn(CC(F)(F)F)c(=O)c12 : reported GI50 = 183

Record summary for [2H]C([2H])([2H])NC(=O)c1cnc(Nc2cccc(C#N)n2)cc1Nc1cn(C)c2c(Cl)cn(CC)c(=O)c12 : reported GI50 = 36.7

Record summary for CCn1ccc2c(c(Nc3cc(NC(=O)C4CC4)nnc3C(=O)NC)cn2C)c1=O : reported GI50 = 62.9
